target-under-test: IDH1 R132C (Homo sapiens, UniProt O75874, R132C)
Sequence (O75874 whole entry R132C): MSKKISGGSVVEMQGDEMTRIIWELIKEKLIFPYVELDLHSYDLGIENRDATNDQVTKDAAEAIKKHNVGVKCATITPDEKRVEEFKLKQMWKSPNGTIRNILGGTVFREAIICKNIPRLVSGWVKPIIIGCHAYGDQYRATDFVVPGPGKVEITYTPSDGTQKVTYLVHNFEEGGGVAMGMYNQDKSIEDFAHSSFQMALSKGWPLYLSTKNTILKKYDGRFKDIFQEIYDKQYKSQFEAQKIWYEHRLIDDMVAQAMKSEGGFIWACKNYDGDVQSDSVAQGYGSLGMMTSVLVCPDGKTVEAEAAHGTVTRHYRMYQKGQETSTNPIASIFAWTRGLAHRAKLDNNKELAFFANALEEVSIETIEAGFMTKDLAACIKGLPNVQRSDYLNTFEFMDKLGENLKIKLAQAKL
assay-info: IDH1 R132C enzymatic assay (NADPH depletion coupled to diaphorase/resazurin)
Type: biochemical
settings: enzymatic inhibition, IDH1 R132C
# maps each entry to its IC50

The cases that follow already have their IC50 on record.
1. CCc1cccc(CC)c1-n1c(CC(C)C)c(C(=O)N2CCNC3(CCC3)C2)cc(-c2nc(-c3ccc(Cl)cc3)cs2)c1=O [Compound 465] ... < 300 nM
2. CCc1cccc(CC)c1-n1c(CC2CCCCC2)c(C(=O)N2CCNCC2)cc(-c2nc(-c3ccc(Cl)cc3)cs2)c1=O [Compound 612] ... < 300 nM
3. CCOc1ncc(Cl)cc1-n1c(C=C(C)C)c(C(=O)N2CCNCC2)cc(-c2nc(-c3ccc(Cl)cc3)cs2)c1=O [Compound 575] ... < 300 nM

Suppose we examine the compound CCOc1ccc(-n2ccc(-c3cc(C(=O)N4CCNCC4)c(CC(C)C)n(-c4c(CC)cccc4CC)c3=O)n2)cc1 [Compound 458] ; what IC50 value has been reported?
< 300 nM

What value of measured IC50 is listed for CCOc1ncc(C)cc1-n1c(C=C(C)C)c(C(=O)N2CCNCC2)cc(-c2nc(-c3ccc(C(F)F)cc3)cs2)c1=O [Compound 562] ?
< 300 nM

Field request: IC50 | item: O=c1c(-c2nc(-c3ccc(Cl)cc3)cs2)cc2c(O)cccc2n1-c1cccnc1 [Compound 514]
1000 to 5000 nM

Could you tell me which IC50 is on file for CCc1ccc(Cl)c(CC)c1-n1c(C)c(C(=O)N2CCNCC2)cc(-c2nc(-c3ccc(Cl)cc3)cs2)c1=O [Compound 600] ?
1000 to 5000 nM
